Assay: Selectivity index, ratio of IC50 for human HepG2 cells to MIC>99 for antimycobacterial activity against Mycobacterium kansasii CNCTC My 235/80 after 14 days
Format: toxicity
Settings: read-out: Selectivity Index
recorded.metric: selectivity ratio at 336 h

Enquiry: Return reported selectivity ratio at 336 h. Input molecule: `O=[N+]([O-])c1cc(-c2nnc(SCc3ccccc3)n2Cc2ccccc2)cc(C(F)(F)F)c1`
Return: > 100

----------
Tested on: Mycobacterium kansasii
Assay: Antimycobacterial activity against Mycobacterium kansasii CNCTC My 235/80 after 14 days
Type: functional
Conditions: CNCTC My 235/80, 336 h
recorded.metric: log10(MIC99) (log10 of the value in µM)
A difference of one corresponds to tenfold MIC99; all values are log10 with MIC99 in µM.

Solved cases (5 shown):
| chemical.structure | value.reported |
| --- | --- |
| CCn1c(SCc2ccccc2)nnc1-c1cc([N+](=O)[O-])cc([N+](=O)[O-])c1 | -1.52 |
| COc1ccc(-c2nnc(SCc3cc([N+](=O)[O-])cc([N+](=O)[O-])c3)n2Cc2ccccc2)cc1 | 0.90 |
| O=[N+]([O-])c1cc(CSc2nnc(-c3ccccc3)n2-c2ccc(Cl)c(Cl)c2)cc([N+](=O)[O-])c1 | 0.00 |
| O=[N+]([O-])c1cc(-c2nnc(SCc3ccccc3)n2Cc2ccccc2)cc(C(F)(F)F)c1 | -1.52 |
| O=[N+]([O-])c1cc(CSc2nnc(-c3ccccc3)[nH]2)cc([N+](=O)[O-])c1 | 0.90 |

Batch request: log10(MIC99) for each of the following compounds.
1. CCCCCCn1c(SCc2ccccc2)nnc1-c1cc([N+](=O)[O-])cc([N+](=O)[O-])c1
2. COc1ccc(CSc2nnc(-c3cc([N+](=O)[O-])cc([N+](=O)[O-])c3)n2Cc2ccccc2)cc1
3. CCCCCCCCSc1nnc(-c2cc([N+](=O)[O-])cc([N+](=O)[O-])c2)n1Cc1ccccc1
4. O=[N+]([O-])c1ccc(-c2nnc(SCc3cc([N+](=O)[O-])cc([N+](=O)[O-])c3)n2Cc2ccccc2)cc1
5. Cn1c(SCc2ccccc2)nnc1-c1cc([N+](=O)[O-])cc([N+](=O)[O-])c1

Return:
1. 0.00
2. -1.52
3. -1.22
4. 0.60
5. -0.60

Batch request: log10(MIC99) for each of the following compounds.
1. Cn1c(SCc2ccc(Cl)c(Cl)c2)nnc1-c1cc([N+](=O)[O-])cc([N+](=O)[O-])c1
2. CCCCCCCCCCCCn1c(SCc2cc([N+](=O)[O-])cc([N+](=O)[O-])c2)nnc1-c1ccccc1

Return:
1. -0.60
2. 0.30

Each recorded value in this set is attributed to ChEMBL document CHEMBL4373711.
